The origin of these recorded values is patent US12435087B2.

Molecular target: DCN1 (DCUND1) protein PONY domain (Homo sapiens (Human), UniProt Q96GG9)
Sequence (Q96GG9 60-248): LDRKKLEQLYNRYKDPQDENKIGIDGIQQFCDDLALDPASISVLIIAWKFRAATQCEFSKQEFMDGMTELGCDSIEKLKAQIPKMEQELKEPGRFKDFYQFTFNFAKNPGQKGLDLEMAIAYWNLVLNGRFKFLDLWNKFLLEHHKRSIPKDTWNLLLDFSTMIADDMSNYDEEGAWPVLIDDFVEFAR
Assay: TR-FRET assay (binding to DCN-1, displacement of FAM-labeled probe)
Conditions: TR FRET IC50 1 hr (nM), 1 hr after treatment with compound
Method: The TR-FRET assay was designed following the Scott et al. protocol (Scott et al., Nat Chem Biol. 2017 August; 13(8): 850-857. doi:10.1038/nchembio.2386). […] The TR-FRET ratio between Tb-DCN1 and the FAM-labeled probe was measured in a 384-well opti-plate (Perkin Elmer) using a plate reader (BMG) at 1, 5, and 24 hrs after treatment with compound (final DMSO concentration of 0.1%). […]
Some molecules, each annotated with its measured IC50.

Example cases with answers are listed next.
>>> assay_value("CCN1C(=O)[C@H](NC(=O)c2cccc(C(F)(F)F)c2)[C@@H](c2cccc(N3CC=CC3=O)c2)c2c(C)nn(-c3ccccc3)c21 (racemic) [Compound I-28]")
"1000 to 3000 nM"
>>> assay_value("CCN1C(=O)[C@H](NC(=O)c2cccc(C(F)(F)F)c2)[C@@H](c2cccc(NC(=O)C#CCN3CCOCC3)c2)c2c(C)nn(-c3ccccc3)c21 (racemic) [Compound I-139]")
"1000 to 3000 nM"
>>> assay_value("C=C(CN(C)C1COC1)C(=O)NCc1cccc([C@H]2c3c(C)nn(-c4ccccc4)c3N(CC)C(=O)[C@@H]2NC(=O)c2cccc(C(F)(F)F)c2)c1 [Compound I-349]")
"1000 to 3000 nM"
>>> assay_value("C/C=C(\\CN1CCN(C2COC2)CC1)C(=O)NCc1cccc([C@@H]2c3cnn(-c4ccccc4)c3N(CC)C(=O)[C@H]2NC(=O)c2nccc(C(F)(F)F)n2)c1 [Compound I-220]")
"200 to 1000 nM"
>>> assay_value("C=C(CN1CCOCC1)C(=O)NCc1cccc([C@@H]2c3cnn(-c4ccccc4)c3N(CC)C(=O)[C@H]2NC(=O)c2ccn(C(F)F)n2)c1 [Compound I-308]")
"200 to 1000 nM"

*Q* # value lookup — system DCN1 (DCUND1) protein PONY domain (Homo sapiens (Human), UniProt Q96GG9), readout IC50, item C=C(CN1CCOCC1)C(=O)NCc1cccc([C@@H]2c3cnn(-c4ccccc4)c3N(CC)C(=O)[C@H]2NC(=O)c2ccnn2C)c1 [Compound I-266]
*A* 1000 to 3000 nM

*Q* Please provide the recorded IC50 for CCN1C(=O)[C@H](NC(=O)c2cccc(C(F)(F)F)c2)[C@@H](c2cccc(NC(=O)C#CCN(C)C)c2)c2cnn(-c3ccccc3)c21 (racemic) [Compound I-132] , tested on DCN1 (DCUND1) protein PONY domain (Homo sapiens (Human), UniProt Q96GG9).
*A* 200 to 1000 nM

*Q* Tell me reported IC50 for CCN1C(=O)[C@@H](NC(=O)c2cccc(C(F)(F)F)c2)[C@H](c2cccc(CN(C)C#N)c2)c2cnn(-c3ccccc3)c21 (racemic) [Compound I-104] , tested with DCN1 (DCUND1) protein PONY domain (Homo sapiens (Human), UniProt Q96GG9).
*A* 1000 to 3000 nM

*Q* Please tell me: IC50 of CCN1C(=O)[C@H](NC(=O)c2cccc(C(F)(F)F)c2)[C@@H](c2cccc(CNC(=O)C3=CCN(C)C3)c2)c2c(C)nn(-c3ccccc3)c21 [Compound I-362] , system DCN1 (DCUND1) protein PONY domain (Homo sapiens (Human), UniProt Q96GG9)?
*A* 1000 to 3000 nM

*Q* Lab request: please report IC50 under test system DCN1 (DCUND1) protein PONY domain (Homo sapiens (Human), UniProt Q96GG9) for C=C(CN1CCOCC1)C(=O)NCc1cccc([C@@H]2c3cnn(-c4ccccc4)c3N(CC)C(=O)[C@H]2NC(=O)c2ccn(CC#N)n2)c1 [Compound I-340]
*A* 1000 to 3000 nM

*Q* Which IC50 is reported with DCN1 (DCUND1) protein PONY domain (Homo sapiens (Human), UniProt Q96GG9) for this entry: C=C(CO)C(=O)NCc1cccc([C@@H]2c3cnn(-c4ccccc4)c3N(CC)C(=O)[C@H]2NC(=O)c2cccc(C(F)(F)F)c2)c1 [Compound I-76] ?
*A* 1000 to 3000 nM

*Q* Request: IC50, test system DCN1 (DCUND1) protein PONY domain (Homo sapiens (Human), UniProt Q96GG9), entry C=C(CN1CCN(C2COC2)CC1)C(=O)N[C@@H](C)c1cccc([C@@H]2c3cnn(-c4ccccc4)c3N(CC)C(=O)[C@H]2NC(=O)c2nccc(C(F)(F)F)n2)c1 (mixture of isomers) [Compound I-380]
*A* 1000 to 3000 nM
